- testedOn: human SF-1 (Homo sapiens)
- procedureText: SF-1 Luc assay (Gal4DBD-SF-1LBD luciferase reporter in transfected CHO-K1 cells)
- measurementParameters: CHO-K1 cells transfected with GAL4-SF-1 plasmid, 40 hours incubation; read-out: hSF-1-Luc: EC50
pEC50: −log10 of the molar value.
The following compounds are shown together with reported pEC50 values.

These recorded examples may help you get a feel for the data.
> print(dat)
                                   compound         value
1  C[C@@H](NC(=O)Cn1cnc2c(Nc3ccc(C(F)(F)F)cc3)nn(C)c2c1=O)C1CCOCC1 [Compound 16]  6.00 to 6.70
2  Cn1nc(Nc2ccc(C(F)(F)F)cc2)c2ncn(CC(=O)N[C@H]3CCC[C@H](OC(F)F)C3)c(=O)c21 (single isomer, unassigned) [Compound 43]        > 6.70

query: Read the entry Cn1nc(Nc2ccc(C(F)(F)F)nc2)c2ncn(CC(=O)N[C@H]3CC[C@H](OCC(C)(C)O)CC3)c(=O)c21 [Compound 68] and write its reported pEC50.
result: 6.00 to 6.70

----------
- testedOn: human SF-1 (Homo sapiens)
- procedureText: SF-1 Luc assay (Gal4DBD-SF-1LBD luciferase reporter in transfected CHO-K1 cells)
- measurementParameters: CHO-K1 cells transfected with GAL4-SF-1 plasmid, 40 hours incubation; read-out: hSF-1-Luc: EC50
pEC50: −log10 of the molar value.
The following molecules are shown together with reported pEC50 values.

query: Read the entry Cn1nc(Nc2ccc(C(F)(F)F)cc2)c2ncn(CC(=O)N[C@H]3CC[C@H](C(C)(C)CO)CC3)c(=O)c21 [Compound 27] and write its reported pEC50.
result: > 6.70

query: Read the entry Cn1nc(Nc2ccc(C(F)(F)F)cc2)c2ncn(CC(=O)Nc3ccc(C(C)(C)S(C)(=O)=O)cc3)c(=O)c21 [Compound 12] and write its reported pEC50.
result: > 6.70

query: Read the entry CC(C)(O)CO[C@H]1CC[C@H](NC(=O)Cn2cnc3c(Nc4ccc(C(F)(F)F)cc4)nn(CC(F)(F)F)c3c2=O)CC1 [Compound 92] and write its reported pEC50.
result: 6.00 to 6.70

query: Read the entry Cn1nc(Nc2ccc(C(F)(F)F)nc2)c2ncn(CC(=O)N[C@H]3CC[C@H](OC(F)F)CC3)c(=O)c21 [Compound 65] and write its reported pEC50.
result: > 6.70

query: Read the entry CCn1nc(Nc2ccc(C(F)(F)F)cc2)c2ncn(CC(=O)Nc3ccc(OC)c(F)c3)c(=O)c21 [Compound 77] and write its reported pEC50.
result: > 6.70

query: Read the entry Cn1nc(Nc2ccc(C(F)(F)F)cc2)c2ncn(CC(=O)N[C@H]3CC[C@H](OCC4CCOCC4)CC3)c(=O)c21 [Compound 39] and write its reported pEC50.
result: > 6.70

query: Read the entry CCn1nc(Nc2ccc(C(F)(F)F)cc2)c2ncn(CC(=O)N[C@H]3CC[C@H](OC(F)F)CC3)c(=O)c21 [Compound 80] and write its reported pEC50.
result: > 6.70

----------
- Test system: rat Leydig tumor cell line R2C
- procedureText: R2C proliferation assay for SF-1 antagonists (EdU incorporation)
- Type: cell-based
- measurementParameters: R2C, read-out: R2C: EC50
pEC50: −log10 of the molar value.
The following molecules are shown together with reported pEC50 values.

query: Read the entry Cn1nc(Nc2ccc(C(F)(F)F)cc2)c2ncn(CC(=O)N[C@H]3CCC[C@H](OC(F)F)C3)c(=O)c21 (single isomer, unassigned) and write its reported pEC50.
result: > 6.70

----------
The following compounds are shown together with reported EC50 values.
- testedOn: human SF-1 (Homo sapiens, UniProt Q13285)
- Sequence (Q13285 198-461 limits assumed): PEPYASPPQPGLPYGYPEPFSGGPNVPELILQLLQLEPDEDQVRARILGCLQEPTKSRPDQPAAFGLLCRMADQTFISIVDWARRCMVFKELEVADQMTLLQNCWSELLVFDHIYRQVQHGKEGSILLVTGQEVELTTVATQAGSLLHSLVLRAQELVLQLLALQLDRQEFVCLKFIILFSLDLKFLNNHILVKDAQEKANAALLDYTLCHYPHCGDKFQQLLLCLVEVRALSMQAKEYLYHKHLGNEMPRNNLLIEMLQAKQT
- procedureText: SF-1 Luc assay (Gal4DBD-SF-1LBD luciferase reporter in transfected CHO-K1 cells)
- measurementParameters: CHO-K1 cells transfected with GAL4-SF-1 plasmid, 40 hours incubation; read-out: hSF-1-Luc: EC50

> print(dat)
                                   compound                                  testedon           value
1  Cn1nc(Nc2ccc(C(F)(F)F)cc2)c2ncn(CC(=O)Nc3ccc(C(C)(C)C(N)=O)cc3)c(=O)c21 [Compound 21]  human SF-1 (Homo sapiens, UniProt Q13285)        < 200 nM
2  Cn1nc(Nc2ccc(C(F)(F)F)cc2)c2ncn(CC(=O)N[C@@H]3CCC[C@@H](OC(F)F)C3)c(=O)c21 (single isomer, unassigned) [Compound 44]  human SF-1 (Homo sapiens, UniProt Q13285)        < 200 nM
3  Cn1nc(Nc2ccc(C(F)(F)F)cc2)c2ncn(CC(=O)N[C@H]3CC[C@H](O)CC3)c(=O)c21 [Compound 28]  human SF-1 (Homo sapiens, UniProt Q13285)  200 to 1000 nM
4  Cn1nc(Nc2ccc(C(F)(F)F)cc2)c2ncn(CC(=O)NCC3CCOCC3)c(=O)c21 [Compound 14]  human SF-1 (Homo sapiens, UniProt Q13285)        < 200 nM

query: Give EC50 for this entry on human SF-1 (Homo sapiens, UniProt Q13285): COc1ccc(NC(=O)Cn2cnc3c(Nc4ccc(C(F)(F)F)cn4)nn(C)c3c2=O)cc1F [Compound 64]
result: 1000 to 10000 nM

query: Give EC50 for this entry on human SF-1 (Homo sapiens, UniProt Q13285): C[C@@H](O)CO[C@H]1CC[C@H](NC(=O)Cn2cnc3c(Nc4ccc(C(F)(F)F)cc4)nn(C)c3c2=O)CC1 [Compound 23]
result: < 200 nM

query: Give EC50 for this entry on human SF-1 (Homo sapiens, UniProt Q13285): COc1ccc(NC(=O)Cn2cnc3c(Nc4ccc(Cl)cc4)nn(C)c3c2=O)cc1F [Compound 71]
result: < 200 nM

query: Give EC50 for this entry on human SF-1 (Homo sapiens, UniProt Q13285): Cn1nc(Nc2ccc(C(F)(F)F)cc2)c2ncn(CC(=O)NC3CCOCC3)c(=O)c21 [Compound 13]
result: < 200 nM

query: Give EC50 for this entry on human SF-1 (Homo sapiens, UniProt Q13285): COc1ccc(NC(=O)Cn2cnc3c(Nc4ccc(C(F)(F)F)cc4)nn(C(C)C)c3c2=O)cc1F [Compound 98]
result: 200 to 1000 nM

query: Give EC50 for this entry on human SF-1 (Homo sapiens, UniProt Q13285): C[C@H](NC(=O)Cn1cnc2c(Nc3ccc(C(F)(F)F)cc3)nn(C)c2c1=O)C1CCOCC1 [Compound 17]
result: < 200 nM

query: Give EC50 for this entry on human SF-1 (Homo sapiens, UniProt Q13285): COc1ccc(NC(=O)Cn2cnc3c(Nc4ccc(OC(C)C)cc4)nn(C)c3c2=O)cc1F [Compound 70]
result: < 200 nM

query: Give EC50 for this entry on human SF-1 (Homo sapiens, UniProt Q13285): Cn1nc(Nc2ccc(C(F)(F)F)cc2)c2ncn(CC(=O)Nc3ccc(OCC(C)(C)O)cc3)c(=O)c21 [Compound 20]
result: < 200 nM

query: Give EC50 for this entry on human SF-1 (Homo sapiens, UniProt Q13285): Cn1nc(Nc2ccc(C(F)(F)F)cn2)c2ncn(CC(=O)N[C@H]3CC[C@H](OCC(C)(C)O)CC3)c(=O)c21 [Compound 52]
result: 1000 to 10000 nM

query: Give EC50 for this entry on human SF-1 (Homo sapiens, UniProt Q13285): Cn1nc(Nc2ccc(C(F)(F)F)cn2)c2ncn(CC(=O)N[C@H]3CC[C@H](OC(F)F)CC3)c(=O)c21 [Compound 55]
result: 200 to 1000 nM

query: Give EC50 for this entry on human SF-1 (Homo sapiens, UniProt Q13285): C[C@@H](CO)Oc1ccc(NC(=O)Cn2cnc3c(Nc4ccc(C(F)(F)F)cc4)nn(C)c3c2=O)cc1 (single isomer, unassigned) [Compound 26]
result: < 200 nM

query: Give EC50 for this entry on human SF-1 (Homo sapiens, UniProt Q13285): COc1ccc(NC(=O)Cn2cnc3c(Nc4ccc(C(F)(F)F)cc4)nn(C)c3c2=O)cc1F [Compound 11]
result: < 200 nM

query: Give EC50 for this entry on human SF-1 (Homo sapiens, UniProt Q13285): CCn1nc(Nc2ccc(C(F)(F)F)cc2)c2ncn(CC(=O)N[C@H]3CC[C@H](OCC(C)(C)O)CC3)c(=O)c21 [Compound 84]
result: < 200 nM

----------
The following compounds are shown together with reported EC50 values.
- System: rat Leydig tumor cell line R2C
- procedureText: R2C proliferation assay for SF-1 antagonists (EdU incorporation)
- Assay type: cell-based
- measurementParameters: R2C, read-out: R2C: EC50

These recorded examples may help you get a feel for the data.
> print(dat)
                                   compound           value
1  Cn1nc(Nc2ccc(C(F)(F)F)cc2)c2ncn(CC(=O)N[C@H]3CC[C@H](OC(F)F)CC3)c(=O)c21        < 200 nM
2  Cn1nc(Nc2ccc(C(F)(F)F)cc2)c2ncn(CC(=O)N[C@@H]3CCC[C@H](OC(F)F)C3)c(=O)c21 (single isomer, unassigned)        < 200 nM
3  CCn1nc(Nc2ccc(C(F)(F)F)cc2)c2ncn(CC(=O)N[C@H]3CC[C@H](OCC(C)(C)O)CC3)c(=O)c21        < 200 nM
4  CCn1nc(Nc2ccc(C(F)(F)F)cc2)c2ncn(CC(=O)N[C@H]3CC[C@H](OC(F)F)CC3)c(=O)c21        < 200 nM
5  Cn1nc(Nc2ccc(C(F)(F)F)cc2)c2ncn(CC(=O)N[C@H]3CC[C@@H](OC(F)F)CC3)c(=O)c21  200 to 1000 nM
6  Cn1nc(Nc2ccc(C(F)(F)F)cc2)c2ncn(CC(=O)N[C@H]3CCC[C@@H](OC(F)F)C3)c(=O)c21 (single isomer, unassigned)        < 200 nM
7  COc1ccc(NC(=O)Cn2cnc3c(Nc4ccc(Cl)cc4)nn(C)c3c2=O)cc1F        < 200 nM
8  CC(C)(O)CO[C@H]1CC[C@H](NC(=O)Cn2cnc3c(Nc4ccc(C(F)(F)F)cc4)nn(CC(F)(F)F)c3c2=O)CC1  200 to 1000 nM

query: Give EC50 for this entry on rat Leydig tumor cell line R2C: `CCn1nc(Nc2ccc(C(F)(F)F)cc2)c2ncn(CC(=O)Nc3ccc(OC)c(F)c3)c(=O)c21`
result: < 200 nM

The measurements presented in this section are drawn from patent US12617799B2.
